compounds and their reported TGI
Tested on: RPMI-8226 leukemia
Test: NCI tumour cell line growth inhibition, 48 h
recorded.metric: TGI (µM)

compound: CCn1cc(C(=O)O)c(=O)c2cc(F)c(N3CCN(S(=O)(=O)c4cccc5ccccc45)CC3)cc21
tested.system: RPMI-8226 leukemia
comparison.sign: =
value.measured: 9.73

compound: CCCCCCN(CCCCCC)C(=S)N/N=C(\C)c1ccccn1
tested.system: RPMI-8226 leukemia
comparison.sign: =
value.measured: 3.22

compound: O=C1/C(=C/c2ccc(Cl)c(Cl)c2)CN(C(=O)CCN2CCC(=NO)CC2)C/C1=C\c1ccc(Cl)c(Cl)c1
tested.system: RPMI-8226 leukemia
comparison.sign: =
value.measured: 0.84

compound: O=c1cc(O)cc2n1CCC2
tested.system: RPMI-8226 leukemia
comparison.sign: >
value.measured: 100

compound: O=C1NC(=O)c2c1n(Cc1ccccc1)c(=O)n2Cc1ccccc1
tested.system: RPMI-8226 leukemia
comparison.sign: >
value.measured: 100

compound: Cc1c(C(=N)C(C#N)C#N)c(=N)oc2c1ccc1ccccc12
tested.system: RPMI-8226 leukemia
comparison.sign: =
value.measured: 78.3

compound: N#CC1c2ccccc2C=CN1C(=O)CCCl (configuration not stated)
tested.system: RPMI-8226 leukemia
comparison.sign: =
value.measured: 9.25

compound: C[C@]12CCC3[C@@H](CCC45OC4C(=O)CC[C@]35C)C1Cc1cnn(-c3ccc(F)cc3)c1N2 (some centres not stated)
tested.system: RPMI-8226 leukemia
comparison.sign: =
value.measured: 54.7

compound: Clc1cccc(-c2sc(-c3cccs3)cc2Cc2cccs2)c1
tested.system: RPMI-8226 leukemia
comparison.sign: >
value.measured: 10

compound: COc1ccc2c(c1)C(=O)c1c-2c(Nc2ccccc2OC)nc2ccccc12
tested.system: RPMI-8226 leukemia
comparison.sign: >
value.measured: 100

compound: Cc1nn(-c2ccc(Cl)cc2)c2ncnc(N/N=C/c3ccccc3O)c12
tested.system: RPMI-8226 leukemia
comparison.sign: >
value.measured: 100

compound: Cn1nccc1Nc1nccc(-c2ccn([C@H](CO)c3ccc(Cl)c(F)c3)c(=O)c2)n1
tested.system: RPMI-8226 leukemia
comparison.sign: =
value.measured: 59.3

compound: Nc1ncnc2c1nnn2C1C=CC(CP(=O)(O)O)C1 (configuration not stated)
tested.system: RPMI-8226 leukemia
comparison.sign: >
value.measured: 100

compound: CCn1c2c(c3ccccc3c1=O)C(=O)c1ccccc1-2
tested.system: RPMI-8226 leukemia
comparison.sign: >
value.measured: 100

compound: O=C1NC(=N[C@@H](CO)c2ccccc2)S/C1=C\c1ccc2ncccc2c1
tested.system: RPMI-8226 leukemia
comparison.sign: >
value.measured: 25

compound: NNC(=O)C(=O)N/N=C1/CCCC1C(=O)CCC(=O)Nc1ccc(Cl)cc1 (configuration not stated)
tested.system: RPMI-8226 leukemia
comparison.sign: >
value.measured: 100

compound: N#CC(C(=O)C(=O)Nc1c(Cl)cccc1Cl)c1ccccc1 (configuration not stated)
tested.system: RPMI-8226 leukemia
comparison.sign: >
value.measured: 100

compound: O=C(COc1ccc(OCC(=O)N/N=C/c2ccc(-c3ccc(Cl)cc3Cl)o2)c(Cl)c1)N/N=C/c1ccc(-c2ccc(Cl)cc2Cl)o1
tested.system: RPMI-8226 leukemia
comparison.sign: =
value.measured: 38.4

compound: CC(Br)C(=O)NC(CO)C(=O)O (configuration not stated)
tested.system: RPMI-8226 leukemia
comparison.sign: >
value.measured: 100

compound: O=[N+]([O-])c1ccc(C[P+]2(c3ccccc3)CCCCC2)cc1
tested.system: RPMI-8226 leukemia
comparison.sign: >
value.measured: 100

compound: CC1=NN(C(=O)Cc2ccccc2)C(=O)/C1=C\c1ccc(O)cc1
tested.system: RPMI-8226 leukemia
comparison.sign: >
value.measured: 100

compound: CCNc1nc(O)c(/C=C2\C=Nc3ncccc32)s1
tested.system: RPMI-8226 leukemia
comparison.sign: =
value.measured: 68

----------
Test system: RXF 393 renal
Experiment: NCI tumour cell line growth inhibition, 48 h

compound: COC(=O)OC1C(O[C@H]2C[C@H]3[C@@H]4CC=C5C[C@@H](O)CC[C@]5(C)[C@H]4CC[C@]3(C)[C@H]2[C@H](C)C(=O)CCC(C)C)OCC(O)C1OC1OCC(O)C(O)C1OC(=O)c1ccc(OC)cc1 (stereo partly drawn)
comparison.sign: =
TGI (µM): 0.00948
--
compound: CCCCCOc1ccc(/C=N/Nc2cc(C)nc3ccc(Cl)cc23)cc1
comparison.sign: =
TGI (µM): 3.08
--
compound: Cc1ccc2cccc(-c3cccc4ccccc34)c2n1
comparison.sign: =
TGI (µM): 35.7
--
compound: CCOC(=O)/C=C/c1nc(C#N)c(N)o1
comparison.sign: >
TGI (µM): 100
--
compound: COC(=O)/C=C(/C=C1/C(C#N)=C(N)N(c2ccc(Cl)cc2)C1(C)/C(=C\C(=O)OC)C(=O)OC)C(=O)OC (stereo not drawn)
comparison.sign: =
TGI (µM): 35.4
--
compound: CCN=c1sc2c(n1NC(=O)c1cc3ccc1CCc1ccc(cc1)CC3)C(=O)c1ccccc1C2=O
comparison.sign: =
TGI (µM): 0.976
--
compound: Cc1c(C(=N)C(C#N)C#N)c(=N)oc2c1ccc1ccccc12
comparison.sign: =
TGI (µM): 15.4
--
compound: COc1ccc(C)cc1N1C(=O)C2ON(Cc3ccc(CC(N)=O)cc3)C(c3c4ccccc4c(Cl)c4ccccc34)C2C1=O (stereo not drawn)
comparison.sign: =
TGI (µM): 33.7

----------
Test system: A498 renal
Test: NCI tumour cell line growth inhibition, 48 h
molecules and their reported TGI
recorded.metric: TGI

molecule: COc1ccc2c(c1)C(=O)c1c-2c(Nc2ccccc2OC)nc2ccccc12
value.measured: > 100 µM
--
molecule: CN(C)C(=O)C(F)(F)C(c1ccc(F)cc1)C1C(=O)N(C)C(=O)N(C)C1=O (centres undefined)
value.measured: > 100 µM
--
molecule: O=[N+]([O-])c1ccccc1C1SCc2nc3ccccc3n21 (centres undefined)
value.measured: > 100 µM
--
molecule: CCN=c1sc2c(n1NC(=O)c1cc3ccc1CCc1ccc(cc1)CC3)C(=O)c1ccccc1C2=O
value.measured: 20.9 µM
--
molecule: N#C/C(=C\c1cc(OCc2ccccc2)c(OCc2ccccc2)cn1)C(N)=O
value.measured: > 100 µM
--
molecule: N#CC(C(=O)C(=O)Nc1c(Cl)cccc1Cl)c1ccccc1 (centres undefined)
value.measured: > 100 µM
--
molecule: COc1cc2oc(-c3ccc(O)cc3)cc(=O)c2c(O)c1C1OC(CO)C(O)C(O)C1O (centres undefined)
value.measured: > 100 µM
--
molecule: COc1cc2nc(-c3ccc(Cl)cc3)cc(OCCCN3CCOCC3)c2cc1OC
value.measured: 4.02 µM
--
molecule: COc1ccc2sc3c(NCCCN)nc4ccccc4c3c(=O)c2c1
value.measured: 5.59 µM
--
molecule: CC1(C)CC(=O)C2=C(C1)C(c1ccccc1Cl)C1C(=O)CC(C)(C)CC1(O)O2 (centres undefined)
value.measured: > 100 µM
--
molecule: CN[C@@H](C)C(=O)N[C@H]1CN(S(=O)(=O)c2cccc(S(=O)(=O)N3CC[C@H]4CC[C@@H](C(=O)NC(c5ccccc5)c5ccccc5)N4C(=O)[C@@H](NC(=O)[C@H](C)NC)C3)c2)CC[C@H]2CC[C@@H](C(=O)NC(c3ccccc3)c3ccccc3)N2C1=O
value.measured: > 67.7 µM
--
molecule: CCOC(=O)c1csc(NC(=O)C(C)N2CCCC2)n1 (centres undefined)
value.measured: > 100 µM
--
molecule: CC(C)NC(=O)OCc1c(COC(=O)NC(C)C)n(C)c2c1ccc1sccc12
value.measured: 52.3 µM
--
molecule: COC(=O)/C=C(\C)CC/C=C(\C)CCC1OC1(C)C (centres undefined)
value.measured: 28.6 µM
--
molecule: Cn1c2ccccc2c2ccc3c(c21)C(=O)c1ccc2c4ccccc4n(C)c2c1C3=O
value.measured: > 100 µM
--
molecule: COc1ccc(OC)c(NCC(=O)n2nc(/C=C\c3ccc(O)c(OC)c3)cc2/C=C\c2ccc(O)c(OC)c2)c1
value.measured: 5.7 µM
--
molecule: O=[N+]([O-])c1ccc(C[P+]2(c3ccccc3)CCCCC2)cc1
value.measured: > 100 µM
--
molecule: O=C(CCc1cc(O)cc(O)c1)NCCc1cc(OCc2ccccc2)cc(OCc2ccccc2)c1
value.measured: 42.8 µM
--
molecule: CSC1=Nc2c(c(C)c(C)n2COC(CO)CO)C2=NC(=O)CN12
value.measured: > 100 µM
--
molecule: Cn1nccc1Nc1nccc(-c2ccn([C@H](CO)c3ccc(Cl)c(F)c3)c(=O)c2)n1
value.measured: 15.3 µM
--
molecule: CC(=O)c1ccc(Oc2c3ccccc3nc3ccccc23)cc1
value.measured: 31.8 µM
--
molecule: CSCC[C@@H](NC(=O)[C@H](CC(C)C)NC(=O)C(Cc1cnc[nH]1)NC(=O)CNC(=O)[C@@H](NC(=O)[C@H](C)NC(=O)[C@H](Cc1c[nH]c2ccccc12)NC(=O)[C@H](CCC(N)=O)NC(=O)[C@@H](N)CC(N)=O)C(C)C)C(N)=O (some centres undefined)
value.measured: > 100 µM
--
molecule: COc1cc([C@@H]2c3cc4c(cc3[C@@H](NC(=O)c3ccc(C#N)cc3)C3COC(=O)[C@@H]32)OCO4)cc(OC)c1O (some centres undefined)
value.measured: 3.79 µM
--
molecule: CCCCI(O)OS(=O)(=O)c1ccc(C)cc1
value.measured: > 100 µM
--
molecule: Nc1nc2c(c3cnccc13)C(c1ccc(Cl)c(Cl)c1)Cc1cnccc1-2 (centres undefined)
value.measured: 1.01 µM
--
molecule: CC(=O)O[C@@H](c1nccn1Cc1ccccc1)[C@H]1OC(C)(C)O[C@@H]1[C@H]1COC(C)(C)O1
value.measured: > 100 µM
--
molecule: Cc1nc(N)c(N2CCN(C#N)CC2)c(=O)[nH]1
value.measured: > 100 µM
--
molecule: O=c1ccc2ccc(S)cc2o1
value.measured: > 100 µM
--
molecule: O=C1[C@@H]2C(c3c(Cl)cccc3Cl)=NO[C@@H]2C(=O)N1c1ccc(Cc2ccc(N3C(=O)[C@H]4C(c5c(Cl)cccc5Cl)=NO[C@H]4C3=O)cc2)cc1
value.measured: > 100 µM
--
molecule: CO/N=C1\CC(NC(=O)C(F)(F)F)c2ccsc21 (centres undefined)
value.measured: > 100 µM
--
molecule: COC(=O)c1ccccc1C1CN=NC12Cc1c(ccc(C)c1C)C2=O (centres undefined)
value.measured: > 100 µM
--
molecule: CN(CCN1CCCC1)C1CCc2cc(Cl)c(Cl)cc2C1 (centres undefined)
value.measured: 27.1 µM
--
molecule: S=C(Cc1ccc2c(c1)Sc1ccccc1O2)N1CCOCC1
value.measured: > 100 µM
--
molecule: O=[N+]([O-])c1cccc(C2=NN(c3ccccc3)C3c4cc(Br)ccc4OCC23)c1 (centres undefined)
value.measured: > 100 µM
--
molecule: CCN(C)c1nc(N(C)CC)c2nc(N(C)CC)nc(N(C)CC)c2n1
value.measured: > 100 µM
--
molecule: C[C@]12Cc3cn[nH]c3C(=O)C1CC[C@@H]1C2CC[C@@]2(C)C1CC[C@@H]2O (some centres undefined)
value.measured: > 100 µM
--
molecule: COc1ccc2ccc3oc(=O)c(C)cc3c2c1
value.measured: > 100 µM
--
molecule: COc1cc2ccc3c4cc(OC)c(OC)cc4c[n+](C)c3c2cc1O
value.measured: > 48.1 µM
--
molecule: Nc1ncc(Cc2ccc3c(c2)OCO3)c(N)n1
value.measured: > 100 µM
